Tested on: PfIESI-1 RRM domain (Plasmodium falciparum ortholog aa 875-1232, GST fusion)
assay details: RBNS R-value (6-mer enrichment in protein-bound RNA vs input library) (ratio); higher = stronger binding preference; the methods of the paper give 50 / 100 / 500 nM protein instead
settings: protein concentration: 250 nM
The full ranking holds about 4,100 sequences; the median of “RBNS R-value (6-mer enrichment in protein-bound RNA vs input library)” is about 0.99, and the highest 2% start at about 1.4. Shown is part of a subset that was picked to be rich in the highest values.
Output True for RBNS R-value not less than 1; output False otherwise.

Check out these entries, answers already filled in.
{"construct sequence": "UGACCG", "class name": "True"}
{"construct sequence": "ACCUAU", "class name": "False"}
{"construct sequence": "AUUGAU", "class name": "True"}
{"construct sequence": "CCACGA", "class name": "True"}
{"construct sequence": "AUUAGU", "class name": "False"}

**Query** Determine whether measured RBNS R-value meets or exceeds 1 for CACCCG
**Result** True

**Query** Given GUCCUC , state whether its RBNS R-value is at least 1.
**Result** False

**Query** Textbook exercise: given the entry AUCCUA , state whether its RBNS R-value is greater than or equal to 1.
**Result** False

**Query** Check the entry ACGCCU : does RBNS R-value equal or exceed 1?
**Result** True

**Query** State whether the measured RBNS R-value reaches 1, counting equality as reaching it, for CUUAAG
**Result** False

**Query** Given AUUCCG , state whether its RBNS R-value is at least 1.
**Result** True

**Query** Determine whether this sequence has RBNS R-value no lower than 1: CACCCA
**Result** True

**Query** Hi team, for UGCCCG , is the recorded RBNS R-value at or above 1?
**Result** True

**Query** API: above_or_equal(metric=RBNS R-value, cutoff=1) for item GGAUGA
**Result** True
